We begin with a simple list: items and their reported Activity.
System: Staphylococcus aureus
PROCEDURE DETAILS: Antibacterial activity against methicillin-susceptible Staphylococcus aureus isolates from skin or soft tissue infection outpatients
Assay type: functional
Field: numeric (%). Do not append units.

Here are 8 compounds together with their reported answers.
* CCC[C@@H]1C[C@@H](C(=O)NC(C(C)Cl)[C@H]2O[C@H](SC)[C@H](O)[C@@H](O)[C@H]2O)N(C)C1 (single isomer, unassigned) [CLINDAMYCIN] | 7
* Cc1nnc(SCC2=C(C(=O)O)N3C(=O)[C@@H](NC(=O)Cn4cnnn4)[C@H]3SC2)s1 [CEFAZOLIN] | 0
* O=C(O)c1cn(C2CC2)c2cc(N3CCNCC3)c(F)cc2c1=O [CIPROFLOXACIN] | 8.8
* CO[C@H]1/C=C/O[C@@]2(C)Oc3c(C)c(O)c4c(O)c(c(/C=N/N5CCN(C)CC5)c(O)c4c3C2=O)NC(=O)/C(C)=C\C=C\[C@H](C)[C@H](O)[C@@H](C)[C@@H](O)[C@@H](C)[C@H](OC(C)=O)[C@@H]1C [RIFAMPIN] | 0
* C[C@H]1COc2c(N3CCN(C)CC3)c(F)cc3c(=O)c(C(=O)O)cn1c23.C[C@H]1COc2c(N3CCN(C)CC3)c(F)cc3c(=O)c(C(=O)O)cn1c23.O [LEVOFLOXACIN] | 0
* CC[C@H]1OC(=O)[C@H](C)[C@@H](O[C@H]2C[C@@](C)(OC)[C@@H](O)[C@H](C)O2)[C@H](C)[C@@H](O[C@@H]2O[C@H](C)C[C@H](N(C)C)[C@H]2O)[C@](C)(O)C[C@@H](C)C(=O)[C@H](C)[C@@H](O)[C@]1(C)O [ERYTHROMYCIN] | 57.9
* O=C(N[C@H](CO)[C@H](O)c1ccc([N+](=O)[O-])cc1)C(Cl)Cl [CHLORAMPHENICOL] | 0
* CN[C@H](CC(C)C)C(=O)N[C@H]1C(=O)N[C@@H](CC(N)=O)C(=O)N[C@H]2C(=O)N[C@H]3C(=O)N[C@H](C(=O)N[C@H](C(=O)O)c4cc(O)cc(O)c4-c4cc3ccc4O)[C@H](O)c3ccc(c(Cl)c3)Oc3cc2cc(c3O[C@@H]2O[C@H](CO)[C@@H](O)[C@H](O)[C@H]2O[C@H]2C[C@](C)(N)[C@H](O)[C@H](C)O2)Oc2ccc(cc2Cl)[C@H]1O [VANCOMYCIN] | 0

API: the following record is the query input.
Tell me measured Activity for CN(C)[C@@H]1C(O)=C(C(N)=O)C(=O)[C@@]2(O)C(O)=C3C(=O)c4c(O)cccc4[C@@](C)(O)[C@H]3C[C@@H]12 [TETRACYCLINE] please.
0
